Target: IKZF2 (Homo sapiens, UniProt Q96SW2+Q9UKS7)
Sequence (Q9UKS7 whole entry): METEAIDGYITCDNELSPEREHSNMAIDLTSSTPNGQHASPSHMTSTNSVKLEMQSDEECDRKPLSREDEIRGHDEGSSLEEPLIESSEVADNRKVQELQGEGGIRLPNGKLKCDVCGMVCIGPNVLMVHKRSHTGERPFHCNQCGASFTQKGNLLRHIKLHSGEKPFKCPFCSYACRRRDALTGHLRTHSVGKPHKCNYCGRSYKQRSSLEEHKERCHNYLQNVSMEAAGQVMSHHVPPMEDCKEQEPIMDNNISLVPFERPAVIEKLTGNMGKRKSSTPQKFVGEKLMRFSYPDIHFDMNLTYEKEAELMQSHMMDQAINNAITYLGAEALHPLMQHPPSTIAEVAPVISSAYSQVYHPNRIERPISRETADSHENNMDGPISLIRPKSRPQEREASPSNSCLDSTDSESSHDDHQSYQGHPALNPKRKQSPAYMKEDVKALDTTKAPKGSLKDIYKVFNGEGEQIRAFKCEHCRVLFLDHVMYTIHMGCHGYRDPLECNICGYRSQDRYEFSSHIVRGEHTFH
Sequence (Q96SW2 whole entry): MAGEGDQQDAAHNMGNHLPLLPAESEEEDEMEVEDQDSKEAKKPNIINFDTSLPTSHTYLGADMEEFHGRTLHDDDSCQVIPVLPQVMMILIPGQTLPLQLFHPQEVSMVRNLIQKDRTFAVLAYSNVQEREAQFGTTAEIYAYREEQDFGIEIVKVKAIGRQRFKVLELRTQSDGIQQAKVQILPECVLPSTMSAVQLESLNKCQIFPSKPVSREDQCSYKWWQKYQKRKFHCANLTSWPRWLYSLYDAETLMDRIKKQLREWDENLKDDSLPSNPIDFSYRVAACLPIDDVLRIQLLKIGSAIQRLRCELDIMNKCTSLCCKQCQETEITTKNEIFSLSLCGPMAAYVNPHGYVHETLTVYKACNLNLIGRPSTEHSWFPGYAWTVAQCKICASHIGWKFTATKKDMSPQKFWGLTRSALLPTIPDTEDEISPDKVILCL
Sequence (Q16531 whole entry partner): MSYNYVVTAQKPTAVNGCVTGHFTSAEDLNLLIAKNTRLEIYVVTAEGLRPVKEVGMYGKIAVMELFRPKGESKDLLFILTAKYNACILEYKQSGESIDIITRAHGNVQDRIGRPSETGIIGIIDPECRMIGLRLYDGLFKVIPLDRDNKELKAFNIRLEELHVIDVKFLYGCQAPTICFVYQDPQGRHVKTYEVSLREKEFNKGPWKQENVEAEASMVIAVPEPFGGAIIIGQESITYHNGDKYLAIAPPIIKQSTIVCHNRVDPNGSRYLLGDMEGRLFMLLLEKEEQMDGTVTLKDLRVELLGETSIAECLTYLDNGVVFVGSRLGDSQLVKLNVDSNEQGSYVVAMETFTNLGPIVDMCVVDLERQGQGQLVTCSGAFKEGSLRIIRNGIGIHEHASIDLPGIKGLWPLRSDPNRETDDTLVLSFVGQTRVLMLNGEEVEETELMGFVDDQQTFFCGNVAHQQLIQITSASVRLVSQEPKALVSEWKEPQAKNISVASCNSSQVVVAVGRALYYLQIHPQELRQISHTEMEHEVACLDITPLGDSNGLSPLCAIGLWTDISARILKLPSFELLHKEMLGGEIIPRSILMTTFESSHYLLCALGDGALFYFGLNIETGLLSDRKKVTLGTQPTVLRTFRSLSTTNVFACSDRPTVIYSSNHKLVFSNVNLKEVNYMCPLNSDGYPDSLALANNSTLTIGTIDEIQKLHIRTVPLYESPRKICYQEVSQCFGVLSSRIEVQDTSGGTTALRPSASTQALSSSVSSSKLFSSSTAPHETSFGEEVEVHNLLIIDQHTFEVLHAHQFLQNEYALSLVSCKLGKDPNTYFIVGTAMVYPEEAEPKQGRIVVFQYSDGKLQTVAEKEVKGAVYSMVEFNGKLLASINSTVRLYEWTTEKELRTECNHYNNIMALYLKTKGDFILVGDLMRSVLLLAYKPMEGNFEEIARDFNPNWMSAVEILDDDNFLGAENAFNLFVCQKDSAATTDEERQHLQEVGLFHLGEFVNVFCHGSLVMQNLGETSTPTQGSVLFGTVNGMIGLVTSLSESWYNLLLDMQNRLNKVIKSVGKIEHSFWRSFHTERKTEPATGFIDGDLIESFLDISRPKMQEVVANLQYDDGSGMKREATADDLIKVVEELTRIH
Assay: Prolabel quantification of IKZF2 protein levels in 293GT cells
Conditions: read-out: IKZF2 EC50; Helios (IKZF2) degradation, prolabel-tagged fusion protein in 293GT cells; highest concentration 50 µM
ENDPOINT: DC50

Answered examples (5):
INSERT INTO measurements (molecule, test_target, endpoint, result) VALUES
  ('N[C@H]1CCCC[C@@H]1Nc1ccc2c(c1)CN(C1CCC(=O)NC1=O)C2=O (stereo partly drawn)', 'IKZF2 (Homo sapiens, UniProt Q96SW2+Q9UKS7)', 'DC50', '183 nM'),
  ('CN(C)[C@H]1CCCC[C@@H]1Nc1ccc2c(c1)C(=O)N(C1CCC(=O)NC1=O)C2=O (stereo partly drawn)', 'IKZF2 (Homo sapiens, UniProt Q96SW2+Q9UKS7)', 'DC50', '410 nM'),
  ('CN(c1ccc2c(c1)C(=O)N(C1CCC(=O)NC1=O)C2=O)[C@H]1CCCC[C@@H]1N (stereo partly drawn)', 'IKZF2 (Homo sapiens, UniProt Q96SW2+Q9UKS7)', 'DC50', '150 nM'),
  ('CN(c1ccc2c(c1)C(=O)N(C1CCC(=O)NC1=O)C2=O)[C@H]1CCCC[C@@H]1NCC(=O)O (stereo partly drawn)', 'IKZF2 (Homo sapiens, UniProt Q96SW2+Q9UKS7)', 'DC50', '11300 nM'),
  ('CN[C@H]1CCCC[C@@H]1Nc1ccc2c(c1)CN(C1CCC(=O)NC1=O)C2=O (stereo partly drawn)', 'IKZF2 (Homo sapiens, UniProt Q96SW2+Q9UKS7)', 'DC50', '990 nM');

Below is a list of molecules. For each, state its recorded DC50.
1. CN(c1ccc2c(c1)C(=O)N(C1CCC(=O)NC1=O)C2=O)[C@H]1CCCC[C@@H]1NCc1ccccc1 (stereo partly drawn)
2. CN[C@H]1CCCCC[C@@H]1N(C)c1ccc2c(c1)C(=O)N(C1CCC(=O)NC1=O)C2=O (stereo partly drawn)
3. CN[C@@H]1CCCC[C@H]1N(C)c1ccc2c(c1)CN(C1CCC(=O)NC1=O)C2=O (relative stereo) [Compound I-9]
4. CCN[C@H]1CCCC[C@@H]1Nc1ccc2c(c1)CN(C1CCC(=O)NC1=O)C2=O (stereo partly drawn)

A.
1. 450 nM
2. 230 nM
3. 113 nM
4. 1670 nM

Please state, for each entry, its recorded DC50.
1. CN[C@H]1CCCC[C@@H]1N(C)c1ccc2c(c1)C(=O)N(C1CCC(=O)NC1=O)C2=O (stereo partly drawn)
2. CN[C@H]1CCCC[C@@H]1N(C)c1ccc2c(c1)CN(C1CCC(=O)NC1=O)C2=O (stereo partly drawn)

A.
1: 24 nM; 2: 103 nM
